- assayTarget: HIV-1 Env of isolate 92RW008 (HIV-1)
- procedureSummary: cell-based or functional assay
readoutLabel: IC50 (µg/mL), pseudovirus neutralization
# number then unit; no other words

Take a look at these entries with their results.
{"columns": ["binder", "IC50 (µg/mL), pseudovirus neutralization"],
 "data": [
  ["PGT-126 (antibody, V domains shown) VH: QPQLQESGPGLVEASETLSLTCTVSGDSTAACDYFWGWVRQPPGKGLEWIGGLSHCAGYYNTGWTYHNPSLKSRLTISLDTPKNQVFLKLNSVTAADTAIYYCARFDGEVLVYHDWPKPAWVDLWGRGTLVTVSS VL: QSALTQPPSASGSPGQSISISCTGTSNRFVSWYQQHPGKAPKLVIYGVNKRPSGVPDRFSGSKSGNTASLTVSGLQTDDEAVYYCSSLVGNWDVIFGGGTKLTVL", "0.008 µg/mL"],
  ["PGT-123 (antibody, V domains shown) VH: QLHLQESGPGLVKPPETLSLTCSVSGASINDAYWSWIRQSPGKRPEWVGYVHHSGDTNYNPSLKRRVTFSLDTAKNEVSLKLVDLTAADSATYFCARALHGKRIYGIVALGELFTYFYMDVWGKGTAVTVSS VL: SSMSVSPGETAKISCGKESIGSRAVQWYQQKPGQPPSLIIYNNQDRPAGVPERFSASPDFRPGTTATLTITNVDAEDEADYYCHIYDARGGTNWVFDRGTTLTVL", "0.003 µg/mL"],
  ["PGT-127 (antibody, V domains shown) VH: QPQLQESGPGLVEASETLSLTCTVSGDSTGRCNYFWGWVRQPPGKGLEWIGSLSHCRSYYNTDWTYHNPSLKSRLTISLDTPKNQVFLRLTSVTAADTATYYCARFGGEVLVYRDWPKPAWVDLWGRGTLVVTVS VL: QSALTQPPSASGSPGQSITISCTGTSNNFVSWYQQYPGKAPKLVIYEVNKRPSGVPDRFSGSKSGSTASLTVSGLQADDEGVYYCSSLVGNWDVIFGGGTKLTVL", "0.012 µg/mL"]
]}

Consider the record given below.
Incoming: // returns reported IC50 (µg/mL), pseudovirus neutralization for input PGT-125 (antibody, V domains shown) VH: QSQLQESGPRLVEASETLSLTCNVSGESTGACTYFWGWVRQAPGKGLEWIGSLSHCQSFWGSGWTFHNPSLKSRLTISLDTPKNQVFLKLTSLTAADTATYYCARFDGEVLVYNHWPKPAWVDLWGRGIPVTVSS VL: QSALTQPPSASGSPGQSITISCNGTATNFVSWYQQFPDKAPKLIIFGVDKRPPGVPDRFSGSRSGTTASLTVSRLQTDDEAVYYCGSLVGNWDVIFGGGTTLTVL
Outgoing: 0.004 µg/mL
